# MEASURED_ON: vcFabH2 (C113A) (Vibrio cholerae serotype O1, UniProt Q9KLJ3, C113A)
# Format: binding
# RUN_CONDITIONS: pH 7.5

| SMILES_REPRESENTATION | Binding sites/molecule (Stoichiometry) |
| --- | --- |
| CCCCCCCC(=O)SCCNC(=O)CCNC(=O)[C@H](O)C(C)(C)COP(=O)(O)OP(=O)(O)OC[C@H]1O[C@@H](n2cnc3c(N)ncnc32)[C@H](O)[C@@H]1OP(=O)(O)O | 0.90 |
| CCCCCCCCCCCC(=O)SCCNC(=O)CCNC(=O)[C@H](O)C(C)(C)COP(=O)(O)OP(=O)(O)OC[C@H]1O[C@@H](n2cnc3c(N)ncnc32)[C@H](O)[C@@H]1OP(=O)(O)O | 1.38 |
| CC(=O)SCCNC(=O)CCNC(=O)[C@H](O)C(C)(C)COP(=O)(O)OP(=O)(O)OC[C@H]1O[C@@H](n2cnc3c(N)ncnc32)[C@H](O)[C@@H]1OP(=O)(O)O | 0.69 |
| CCCCCC(=O)SCCNC(=O)CCNC(=O)[C@H](O)C(C)(C)COP(=O)(O)OP(=O)(O)OC[C@H]1O[C@@H](n2cnc3c(N)ncnc32)[C@H](O)[C@@H]1OP(=O)(O)O | 0.878 |
| CC(C)CC(=O)SCCNC(=O)CCNC(=O)[C@H](O)C(C)(C)COP(=O)(O)OP(=O)(O)OC[C@H]1O[C@@H](n2cnc3c(N)ncnc32)[C@H](O)[C@@H]1OP(=O)(O)O | 0.74 |
| CC(C)C(=O)SCCNC(=O)CCNC(=O)[C@H](O)C(C)(C)COP(=O)(O)OP(=O)(O)OC[C@H]1O[C@@H](n2cnc3c(N)ncnc32)[C@H](O)[C@@H]1OP(=O)(O)O | 0.77 |
| CCCCCCCCCC(=O)SCCNC(=O)CCNC(=O)[C@H](O)C(C)(C)COP(=O)(O)OP(=O)(O)OC[C@H]1O[C@@H](n2cnc3c(N)ncnc32)[C@H](O)[C@@H]1OP(=O)(O)O | 1.36 |
| CCCC(=O)SCCNC(=O)CCNC(=O)[C@H](O)C(C)(C)COP(=O)(O)OP(=O)(O)OC[C@H]1O[C@@H](n2cnc3c(N)ncnc32)[C@H](O)[C@@H]1OP(=O)(O)O | 0.87 |

Cited source: paper PMC6105497
